# MEASURED TARGET: Lanosterol 14-alpha-demethylase (Trypanosoma brucei brucei (strain 927/4 GUTat10.1), UniProt Q385E8)
# Sequence (Q385E8 whole entry): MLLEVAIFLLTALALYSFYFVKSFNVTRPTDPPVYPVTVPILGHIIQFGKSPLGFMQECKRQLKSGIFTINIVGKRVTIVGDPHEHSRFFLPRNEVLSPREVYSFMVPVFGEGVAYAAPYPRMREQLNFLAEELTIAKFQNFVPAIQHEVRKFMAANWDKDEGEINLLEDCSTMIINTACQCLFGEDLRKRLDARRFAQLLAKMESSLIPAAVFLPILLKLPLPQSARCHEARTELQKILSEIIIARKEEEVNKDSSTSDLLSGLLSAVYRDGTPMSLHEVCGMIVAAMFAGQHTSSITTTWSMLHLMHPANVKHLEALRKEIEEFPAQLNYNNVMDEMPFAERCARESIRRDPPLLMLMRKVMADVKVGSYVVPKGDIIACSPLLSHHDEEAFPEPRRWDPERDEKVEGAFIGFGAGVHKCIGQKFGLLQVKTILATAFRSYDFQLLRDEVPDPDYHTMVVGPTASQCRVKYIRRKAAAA
# ASSAY INFO: Inhibition Assay
# TEST CONTEXT: pH 6
Below, each of the compounds is paired with its reported log10(Kd) value.
Form field - Quantity: Kd; Unit: nM; Scale: log10

Below, 8 compounds whose answers are already recorded.
INSERT INTO measurements (compound, assay_value) VALUES
  ('COc1cccc(Sc2ccc(C(=O)NCC(c3ccccc3)n3ccnc3)cc2)c1 (centres undefined) [Azole, 9]', 1.85),
  ('O=C(NCC(c1ccccc1)n1ccnc1)c1cnc[nH]1 (centres undefined) [Azole, 5]', 3.28),
  ('O=C(NCC(c1ccc(Cl)cc1)(c1ccc(Cl)cc1)n1ccnc1)c1ccccc1 [Azole, 1]', 3.00),
  ('CCCCOc1ccc(-c2ccc(C(=O)NC(Cn3ccnc3)c3ccc(Cl)cn3)cc2)cc1 (centres undefined) [Azole, 17]', 1.90),
  ('O=C(NCC(c1ccccc1)n1ccnc1)c1ccc2sc3ccccc3c(=O)c2c1 (centres undefined) [Azole, 7]', 2.49),
  ('O=C(NCC(c1ccccc1)n1ccnc1)c1cccc2c1oc1ccccc12 (centres undefined) [Azole, 6]', 2.32),
  ('O=C(NC(Cn1ccnc1)c1ccc(Cl)cc1Cl)c1nnc(-c2ccccc2)o1 (centres undefined) [Azole, 3]', 2.15),
  ('CC(=O)N1CCN(c2ccc(OC[C@H]3CO[C@](Cn4ccnc4)(c4ccc(Cl)cc4Cl)O3)cc2)CC1 [24F2-1,25(OH)D3]', 3.36);

Continue with the next compound.
Give the measured log10(Kd) for O=C(NC(Cn1ccnc1)c1ccccc1)c1ccc(-c2ccc(Cl)cc2)cc1 (centres undefined) [Azole, 4] 1.70

====

Below, each of the compounds is paired with its reported pKd value.
# MEASURED TARGET: Sterol 14-alpha demethylase (Trypanosoma cruzi (strain CL Brener), UniProt Q7Z1V1)
# Sequence (Q7Z1V1 whole entry): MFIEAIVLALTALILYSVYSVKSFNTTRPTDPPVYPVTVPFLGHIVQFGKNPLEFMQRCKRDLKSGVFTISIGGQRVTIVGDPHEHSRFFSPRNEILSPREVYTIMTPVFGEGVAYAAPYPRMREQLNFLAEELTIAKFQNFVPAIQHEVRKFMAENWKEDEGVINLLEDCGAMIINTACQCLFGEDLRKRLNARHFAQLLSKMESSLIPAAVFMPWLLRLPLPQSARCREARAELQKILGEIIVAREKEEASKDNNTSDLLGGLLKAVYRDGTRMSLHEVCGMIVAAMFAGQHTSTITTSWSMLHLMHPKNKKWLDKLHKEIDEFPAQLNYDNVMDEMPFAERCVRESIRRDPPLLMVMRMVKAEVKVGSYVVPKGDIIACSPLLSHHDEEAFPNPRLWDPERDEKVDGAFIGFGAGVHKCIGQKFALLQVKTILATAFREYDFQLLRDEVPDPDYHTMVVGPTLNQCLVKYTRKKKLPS
# ASSAY INFO: Inhibition Assay
# TEST CONTEXT: pH 6
Please express pKd as -log10 of the molar concentration.

Below, 4 compounds whose answers are already recorded.
INSERT INTO results (compound, measured_target, parameter, assay_value) VALUES
  ('COc1ccc(CC(CNC(=O)c2ccc(-c3ccc(Cl)cc3)cc2)n2ccnc2)cc1 (stereo not given)', 'Sterol 14-alpha demethylase (Trypanosoma cruzi (strain CL Brener), UniProt Q7Z1V1)', 'pKd', 6.96),
  ('O=C(NCC(c1ccc(Cl)cc1)(c1ccc(Cl)cc1)n1ccnc1)c1ccccc1', 'Sterol 14-alpha demethylase (Trypanosoma cruzi (strain CL Brener), UniProt Q7Z1V1)', 'pKd', 6.49),
  ('COc1cccc(Sc2ccc(C(=O)NCC(c3ccccc3)n3ccnc3)cc2)c1 (stereo not given)', 'Sterol 14-alpha demethylase (Trypanosoma cruzi (strain CL Brener), UniProt Q7Z1V1)', 'pKd', 7.05),
  ('O=C(NCC(c1ccccc1)n1ccnc1)c1cccc2c1oc1ccccc12 (stereo not given)', 'Sterol 14-alpha demethylase (Trypanosoma cruzi (strain CL Brener), UniProt Q7Z1V1)', 'pKd', 6.89);

Continue with the next compound.
Give the measured pKd for CCCCOc1ccc(-c2ccc(C(=O)NC(Cn3ccnc3)c3ccc(Cl)cn3)cc2)cc1 (stereo not given) 6.96

====

# MEASURED TARGET: Sterol 14-alpha demethylase (Trypanosoma cruzi (strain CL Brener), UniProt Q7Z1V1)
# ASSAY INFO: Inhibition Assay
# TEST CONTEXT: pH 6
PARAMETER: log10(Kd) (log10 of the value in nM)
Form field - Quantity: Kd; Unit: nM; Scale: log10

Below, 6 compounds whose answers are already recorded.
INSERT INTO measurements (compound, measured_target, assay_value) VALUES
  ('O=C(NC(Cn1ccnc1)c1ccc(Cl)cn1)c1ccc(-c2ccc(Cl)cc2)cc1 (centres undefined) [Azole, 20]', 'Sterol 14-alpha demethylase (Trypanosoma cruzi (strain CL Brener), UniProt Q7Z1V1)', 1.85),
  ('O=C(NCC(c1ccccc1)n1ccnc1)c1ccc2sc3ccccc3c(=O)c2c1 (centres undefined)', 'Sterol 14-alpha demethylase (Trypanosoma cruzi (strain CL Brener), UniProt Q7Z1V1)', 2.58),
  ('O=C(NC(Cn1ccnc1)c1ccc(Cl)cc1Cl)c1nnc(-c2ccccc2)o1 (centres undefined)', 'Sterol 14-alpha demethylase (Trypanosoma cruzi (strain CL Brener), UniProt Q7Z1V1)', 2.15),
  ('O=C(NC(Cn1ccnc1)c1ccccc1)c1ccc(-c2ccc(Cl)cc2)cc1 (centres undefined)', 'Sterol 14-alpha demethylase (Trypanosoma cruzi (strain CL Brener), UniProt Q7Z1V1)', 1.85),
  ('O=C(NCC(c1ccccc1)n1ccnc1)c1cccc(Sc2ccccc2)c1 (centres undefined)', 'Sterol 14-alpha demethylase (Trypanosoma cruzi (strain CL Brener), UniProt Q7Z1V1)', 1.70),
  ('O=C(NCC(c1ccccc1)n1ccnc1)c1cnc[nH]1 (centres undefined)', 'Sterol 14-alpha demethylase (Trypanosoma cruzi (strain CL Brener), UniProt Q7Z1V1)', 3.08);

Give the measured log10(Kd) for O=C(NC(Cn1ccnc1)c1ccc(Cl)cn1)c1ccc(-c2ccc(Cl)cc2)cc1 (centres undefined) [Azole, 19] 1.78

Give the measured log10(Kd) for O=C(NCC(c1ccccc1)n1ccnc1)c1ccc(-c2ccc(Cl)cc2)cc1 (centres undefined) 1.85

Give the measured log10(Kd) for O=C(NCC(c1ccccc1)n1ccnc1)c1csc(-c2ccc(Cl)cc2)c1 (centres undefined) 2.04

====

# MEASURED TARGET: Lanosterol 14-alpha-demethylase (Trypanosoma brucei brucei (strain 927/4 GUTat10.1), UniProt Q385E8)
# ASSAY INFO: Inhibition Assay
# TEST CONTEXT: pH 6
Below, each of the compounds is paired with its reported log10(Kd) value.
Form field - Quantity: Kd; Unit: µM; Scale: log10

Below, 4 compounds whose answers are already recorded.
INSERT INTO assay_data (compound, assay_value) VALUES
  ('O=C(NC(Cn1ccnc1)c1ccc(Cl)cn1)c1ccc(-c2ccc(Cl)cc2)cc1 (stereo not given)', -1.05),
  ('O=C(NCC(c1ccccc1)n1ccnc1)c1cccc(Sc2ccccc2)c1 (stereo not given)', -1.30),
  ('COc1ccc(CC(CNC(=O)c2ccc(-c3ccc(Cl)cc3)cc2)n2ccnc2)cc1 (stereo not given)', -0.15),
  ('O=C(NCC(c1ccccc1)n1ccnc1)c1ccc(-c2ccc(Cl)cc2)cc1 (stereo not given)', -1.40);

Give the measured log10(Kd) for O=C(NCC(c1ccccc1)n1ccnc1)c1csc(-c2ccc(Cl)cc2)c1 (stereo not given) -0.68
